- Tested on: A498 renal
- Test Details: NCI tumour cell line growth inhibition, 48 h
Parameter log10 TGI: see the listing below.
Use the decimal logarithm of TGI (µM).

As a guide, the following entries are already answered.
// query # query: log10 TGI | item CCOC(=O)c1cc(C(O)P2(=O)N(CC(C)(C)C)[C@@H]3CCCC[C@H]3N2CC(C)(C)C)cn1C(=O)OC(C)(C)C (stereo not given in full) | system: A498 renal
// result 1.81

// query Now this one: O=C(NC1=CC(=O)c2ccccc2C1=O)c1ccccc1
// result 1.24

// query Now this one: CC1NC(=O)CC(c2ccccc2)N(N=O)C1c1ccccc1 (stereo not given)
// result 1.72

Turning now to a further molecule:
// query # query: log10 TGI | item CCOC(=O)[C@@H](N)CCC(=O)N[C@@H](CSCc1ccccc1)C(=O)N[C@@H](C(=O)OCC)c1ccccc1 | system: A498 renal
// result 1.59

###

- Test system: NCI/ADR-RES ovarian
- Test Details: NCI tumour cell line growth inhibition, 48 h
Quantity Kind: TGI

// query Requested field: TGI. Item: COc1ccc(C2OC[C@H]3O[C@@H](OCc4ccccc4)[C@H](O)[C@@H](O)[C@@H]3O2)cc1 (some centres undefined)
// result > 100 µM

Further cases:
// query Requested field: TGI. Item: O=C1OC(C(O)CO)C(=O)C1=O (centres undefined)
// result > 10000 µM

// query Now this one: O=C(O)Cc1cccc2c(=O)c3ccccc3oc12
// result > 100 µM

// query Now this one: NC(N)=NCCC[C@H](N)C(=O)NCC(=O)N[C@@H](CC(=O)O)c1ncc(NC(=O)C(F)(F)F)o1
// result > 25 µM

// query Now this one: COc1ccc2ccccc2c1/C=C/C(=O)c1ccccc1
// result > 54.8 µM

// query Now this one: Cc1ccc(/C=C2\CCCc3ccccc3C2=O)cc1
// result 99.3 µM

// query Now this one: O=C(NNC(=S)Nc1cccc(Cl)c1)c1cc(-c2ccccc2)nc2ccccc12
// result 56.2 µM

// query Now this one: C[N+](C)(C)CC1CCCCCCCCCCC1=O (centres undefined)
// result > 100 µM

// query Now this one: Cc1ccc2c(c1)C(C(=O)N[C@@H]1C(=O)N3[C@@H]1SC(C)(C)[C@@H]3C(=O)O)OCCC2 (some centres undefined)
// result > 100 µM

// query Now this one: CCCCCCCC/C=C/CCCCCCCC(=O)OC[C@H]1O[C@@H](n2ccc(N)nc2=O)C(F)(F)[C@@H]1O
// result > 100 µM

// query Now this one: CCOP(C)(=O)C(N)Cc1ccc(OC)c(OC)c1 (centres undefined)
// result > 100 µM

// query Now this one: COc1ccccc1CNCCCN1C(=O)c2ccc3c4c(ccc(c24)C1=O)C(=O)N(CCCOCCCCOCCCN)C3=O
// result 4.37 µM

// query Now this one: CC(=O)OC(/C=C/c1ccccc1)=C(OC(C)C)/C1=C(\c2ccccc2)SCCCSC1=O
// result > 100 µM

// query Now this one: CCN(CC)CCNc1nc2ccc([N+](=O)[O-])cc2[n+]([O-])n1
// result 70.5 µM

###

Parameter TGI: see the listing below.
- Tested on: T-47D breast
- Test Details: NCI tumour cell line growth inhibition, 48 h

// query Requested field: TGI. Item: CC1OC(OC2C(O[C@H]3CC[C@@]4(C)C(=CC[C@H]5[C@@H]6C[C@@H]7O[C@]8(CC[C@@H](CO)CO8)[C@@H](C)[C@@H]7[C@@]6(C)CC[C@@H]54)C3)OC(CO)C(O)C2OC2OC(CO)C(O)C(O)C2O)C(O)C(O)C1O (stereo partly drawn)
// result 4.02 µM

// query Now this one: CCOP(C)(=O)C(N)Cc1ccc(OC)c(OC)c1 (stereo not drawn)
// result > 100 µM

// query Now this one: COc1cccc2c1C(=O)c1c(O)c3c(c(O)c1C2=O)C[C@@](O)(C(C)=O)C[C@@H]3OC1OC(C)C(O)C(N)C1Br (stereo partly drawn)
// result 0.74 µM

// query Now this one: c1cc(CNC23CC4CC(CC(C4)C2)C3)cc(C[N+](Cc2cccc(CNC34CC5CC(CC(C5)C3)C4)c2)(Cc2cccc(CNC34CC5CC(CC(C5)C3)C4)c2)Cc2cccc(CNC34CC5CC(CC(C5)C3)C4)c2)c1 (stereo not drawn)
// result 28.1 µM

// query Now this one: CC12C(=O)CC(CC1=O)C2(C)C
// result > 100 µM

// query Now this one: c1ccc2c(c1)ccn2CCc1c[nH]c2ccccc12
// result > 10 µM

// query Now this one: Cc1cc(S(=O)(=O)Nc2nnc(-c3ccccc3)c(-c3ccccc3)n2)c(SCC(N)=O)cc1Cl
// result > 100 µM

// query Now this one: CN1C(=O)c2cccc3cc([N+](=O)[O-])cc(c23)C1=O
// result > 10 µM

Turning now to a further molecule:
// query Requested field: TGI. Item: CCOC(=O)/C=C(/C(=O)OCC)n1ccc(=O)n(Cc2cn(COCCOC(C)=O)nn2)c1=O
// result 81 µM

// data source = PubChem BioAssay (NCI)
